target: Caspase-6 (Homo sapiens); assay: human caspase-6 inhibitors, primary screen, biochemical, VEID-R110 fluorescence, single point, set 2 (AID 686996); conditions: purified caspase-6, Z-VEID-R110 cleavage fluorescence; at 12.5 µM; stronger effect = higher value;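 note: 0% = median of neutral control wells and 100% = no fluorescence left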
About 1,900 (0.54%) of roughly 350,000 compounds were called active. For the sample, actives were picked, then their nearest neighbours and some compounds at random.
Measured inhibition, listed per entry for reference.
The figure you give is taken to be in %; do not add the unit.

MOLECULE | ASSAYED_SYSTEM | inhibition (%)
C[C@H](O)C#Cc1ccc([C@@H]2[C@H](CO)N3CCCCN(CC4CC4)C[C@@H]23)cc1 | Caspase-6 (Homo sapiens) | 4.05
C[C@@H]1CN([C@@H](C)CO)C(=O)c2cc(C#CC3CC3)cnc2O[C@@H]1CN(C)C(=O)Cc1ccccn1 | Caspase-6 (Homo sapiens) | 0.481
COc1ccccc1CCC(=O)OCC(=O)N1CCN(S(=O)(=O)c2ccc(C)cc2C)CC1 | Caspase-6 (Homo sapiens) | 0.558
O=C(C[C@H]1CC[C@@H](NC(=O)Nc2ccc(F)cc2)[C@@H](CO)O1)NCCN1CCCC1 | Caspase-6 (Homo sapiens) | -1.07
CCOC(CNC(=O)C1CCN(S(=O)(=O)c2ccc3nc4c(c(C(=O)O)c3c2)CC(C)CC4)CC1)OCC (stereo not drawn) | Caspase-6 (Homo sapiens) | 33.4

Param readout = inhibition; param system = Caspase-6 (Homo sapiens); param query = Cn1c2c(c(=O)n(C)c1=O)C(c1cccc(F)c1)C(C#N)=C(N)O2 (stereo not drawn) ; response: value 1.86

Would you mind doing `Cc1ccc(S(=O)(=O)N2CCN(C(=O)COC(=O)c3c(C)cc(C)cc3C)CC2)c(C)c1` as well? 0.238

Would you mind doing `COC(=O)C[C@@H]1CC[C@@H]2[C@@H](COc3ccc(NC(=O)C4CCOCC4)cc3C(=O)N2C)O1` as well? -2.32

Reference source for all entries: PubChem BioAssay AID686996
